System: Saccharomyces cerevisiae;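 also: PSI is a weighted mean of sequencing reads over stability bins, variants kept only with over 10 reads, mCherry proximal and sfGFP distal, peptide attached via GGGS linker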
Assay: protein stability index of tFT-peptide fusion (C-terminal peptide) (PSI (0-1 scale)); higher = more stable (slower turnover)
Conditions: genetic background: cdc34-1; temperature: 37 C
recorded-endpoint: protein stability index
Number only, no unit.

Below are worked cases with known answers.
LQCVYFVFFICF 0.268
CCLGVIASFIVW 0.247
FFATFVPSFLLC 0.606
ILFRRRLCCFLK 0.349

Query string: Which value of protein stability index has been reported for TVETYNRARKAS in the records?
Result string: 0.663

Query string: Recorded protein stability index of DFPGDIILRLIA , please.
Result string: 0.576

Query string: Data request, read-out protein stability index, for PISLYFVWFFFF
Result string: 0.242

Query string: May I ask what protein stability index has been recorded for VVLAFFFWFFVG ?
Result string: 0.359

Query string: # lookup: protein stability index of SFVVVFTFFFGC
Result string: 0.272

Query string: What does the data say about its protein stability index? Entry: KCWSGTVMVRLG
Result string: 0.675

Query string: Please look up its protein stability index: AWWMALAVPIVA
Result string: 0.02
